# Tested on: U2OS
# assay.comment: Multiplex assay against U2OS
# Assay type: toxicity, cell-based
# setup.conditions: human, 48 h, 10 µM, compound concentration 10 uM, replicate 2
# Population Pyknosed Nuclei (%) annotations
Please give the number followed by its unit.

| compound | Population Pyknosed Nuclei (%) |
| --- | --- |
| O=C(NCCN1CCC(n2c(=O)[nH]c3cc(Cl)ccc32)CC1)c1ccc(F)cc1 [HALOPEMIDE] | 18% |
| Cc1cccc(NC(=O)CN2CCC(c3ccccn3)CC2)c1.Cl.Cl | 6% |
| CCCCC(=O)N(Cc1ccc(-c2ccccc2-c2nnn[nH]2)cc1)[C@H](C(=O)O)C(C)C | 17% |
| CCCCC1=NC2(CCCC2)C(=O)N1Cc1ccc(-c2ccccc2-c2nnn[nH]2)cc1 [IRBESARTAN] | 10% |
| CC(=O)Nc1cccc2c1c(Sc1ccc(Cl)cc1)c(C)n2CC(=O)O [AZD1981] | 11% |
| Br.CS(=O)(=O)Nc1c(O)ccc2c1CCCC2C1=NCCN1 (centres undefined) | 7% |
| C[C@H](N)COC(=O)[C@@H](CCCCN)NC(=O)Cc1c(-c2ccc3ccccc3c2)[nH]c2c1ccc1ccccc12 | 5% |
| Cc1cnc(-c2cc(N3CCN(C(=O)CCS(C)(=O)=O)CC3)ncc2Cl)c(C)c1 | 5% |

We next turn to a different compound, shown below.
Measured Population Pyknosed Nuclei (%), CC(C)(C)c1cc(NC(=O)Nc2ccc(-c3cn4c(n3)sc3cc(OCCN5CCOCC5)ccc34)cc2)no1 [QUIZARTINIB] : 32%

Each recorded value in this set is attributed to ChEMBL document CHEMBL5058577.
